Values compiled from patent US20240270821A1.

cAMP Rel EC50 (in the presence of 1% HSA) for assorted binders
- Target Entity: hGLP-1R (Homo sapiens, UniProt P43220)
- Sequence (P43220 24-463): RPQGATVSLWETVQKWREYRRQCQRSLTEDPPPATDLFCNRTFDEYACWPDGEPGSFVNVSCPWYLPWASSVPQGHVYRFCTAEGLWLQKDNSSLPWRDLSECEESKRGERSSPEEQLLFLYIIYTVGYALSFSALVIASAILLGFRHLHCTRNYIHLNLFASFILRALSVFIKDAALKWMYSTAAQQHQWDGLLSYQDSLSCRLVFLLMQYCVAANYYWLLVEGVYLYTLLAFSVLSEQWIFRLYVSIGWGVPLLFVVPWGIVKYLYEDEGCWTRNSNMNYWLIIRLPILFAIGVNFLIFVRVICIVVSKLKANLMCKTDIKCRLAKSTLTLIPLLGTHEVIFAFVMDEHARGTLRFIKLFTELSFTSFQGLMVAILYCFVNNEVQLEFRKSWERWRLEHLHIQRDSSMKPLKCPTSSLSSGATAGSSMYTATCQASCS
- Method: cell-based or functional assay
Assay Metric: cAMP Rel EC50 (in the presence of 1% HSA)

| Binder | Observed Measurement |
| --- | --- |
| YXQGTXTSDXXIXLDXKAQXEFIEXLVEGGPSSGAPPPESE (not fully specified; non-natural residues; lipidated Lys; C-terminal amide; synthetic construct; SITE 2: note = 2-Aminoisobutyric Acid; SITE 6: note = alpha-methyl-2-fluoro-L-phenylalanine; SITE 10: note = 3-(4-Pyridyl)-L-alanine; SITE 11: note = alpha-methyl-L-serine; SITE 13: note = alpha-methyl-leucine; SITE 16: note = L-ornithine; SITE 17: note = Lysine is chemically mo) [Example 1156] | 47.1 nM |
| YXQGTXTSDXXIXLDXKAQXEFIEXLVEGGPSSGEPPPSGE (non-natural residues; lipidated Lys; C-terminal amide; synthetic construct; SITE 2: note = 2-Aminoisobutyric Acid; SITE 6: note = alpha-methyl-2-fluoro-L-phenylalanine; SITE 10: note = 3-(4-Pyridyl)-L-alanine; SITE 11: note = alpha-methyl-L-serine; SITE 13: note = alpha-methyl-leucine; SITE 16: note = L-ornithine; SITE 17: note = Lysine is chemically mo) [Example 1161] | 35.5 nM |
| YXQGTXTSDXSILLDKKAQXAFIEYLEEGGPSSGAPPPSGTEE (acylated Lys (γGlu)2-C18 diacid; non-natural residues; C-terminal amide; synthetic construct; SITE 2: note = 2-Aminoisobutyric Acid; SITE 6: note = alpha-methyl-2-fluoro-L-phenylalanine; SITE 10: note = 3-(4-Pyridyl)-L-alanine; SITE 17: note = Lysine is chemically modified through conjugation of the epsilon-amino group of the Lysine side chain with (gamma-Glu)2-CO-(CH2)1) [Example 609] | 121 nM |
| YXQGTXTSDXXIXLDXKAQXEFIEXLIEGGPPSXXPPPSGSE (non-natural residues; lysine acylated AEEA-γGlu-C18 diacid; C-terminal amide; synthetic construct; SITE 2: note = 2-Aminoisobutyric Acid; SITE 6: note = alpha-methyl-2-fluoro-L-phenylalanine; SITE 10: note = 3-(4-Pyridyl)-L-alanine; SITE 11: note = alpha-methyl-L-serine; SITE 13: note = alpha-methyl-leucine; SITE 16: note = L-ornithine; SITE 17: note = Lysine is chemically mo) [Example 1198] | 61 nM |
| HXQGTXTSDYSILLDKKAAXAFIEYLIETGPSSGEPPPSEG (Aib, αMeF(2F), AEEA-γGlu-C20 diacid on Lys, amide; synthetic construct; SITE 2: note = 2-Aminoisobutyric Acid; SITE 6: note = alpha-methyl-2-fluoro-L-phenylalanine; SITE 17: note = Lysine is chemically modified through conjugation of the epsilon-amino group of the Lysine side chain with (2-[2-(2-Amino-ethoxy)-ethoxy]-acetyl)-(gamma-Glu)-CO-(CH2) 18-) [Example 290] | 90 nM |
| YXQGTFTSDFSXXLDKKAQXAFIEYLLEXGHSSGAPPPSGE (non-natural residues; lipidated Lys AEEA-γGlu-C18 diacid; C-term amide; synthetic construct; SITE 2: note = 2-Aminoisobutyric Acid; SITE 12: note = L-ornithine; SITE 13: note = alpha-methyl-leucine; SITE 17: note = Lysine is chemically modified through conjugation of the epsilon-amino group of the Lysine side chain with (2-[2-(2-Amino-ethoxy)-ethoxy]-acetyl)-(gamma-Glu)) [Example 247] | 291 nM |
